Measured values drawn from paper PMC3329556 for this set.

Substrate: NC(=O)c1ccc[n+]([C@@H]2O[C@H](COP(=O)(O)OP(=O)(O)OC[C@H]3O[C@@H](n4cnc5c(N)ncnc54)[C@H](O)[C@@H]3O)[C@@H](O)[C@H]2O)c1
test-method-notes: radiometric HPLC assay, initial rates, Michaelis-Menten fit
Type: biochemical, Bos taurus
conditions-used: 10 mM potassium phosphate pH 7.4, 37°C, 14C-labelled NAD+ tracer
For each record, write down the corresponding kcat.
Your answer is read as s⁻¹, so omit the unit and give the number.

The recorded kcat for entry bCD38 (bovine CD38/NAD+glycohydrolase) (Bos taurus) (protein, soluble ecto-domain residues 32-278 (first 31 residues removed), alpha-factor secretion signal, Pichia pastoris GS115 or X33, mono-N-glycosylated at Asn201, back-to-back homodimer in crystal) YKWHYSGLNRWHGAGSTADFQKIIQERCDTYTQTIRPGSRSRNCQAIRQAFMSAFISKDPCKATKEDYNSLINLAPPTVPCGQQVFWSKTKELAHEYAKRRRLMTLEDTLLGYLADGLRWCGEPGSSDLNIWSCPDWRKDCRTNYLSVFWEVLSERFAESACNTVRVVLNGSLENAFDSMSIFGRVEAPNLRPQVELEAWLVHDTGKPPSDSCSGSSIRKLKSILDGRNVKFRCMDNLSRDQFLQRS equals 57.9

The recorded kcat for entry bCD38 (bovine CD38/NAD+glycohydrolase) (Bos taurus; E218Q) (protein, soluble ecto-domain residues 32-278 (first 31 residues removed), alpha-factor secretion signal, Pichia pastoris GS115 or X33, mono-N-glycosylated at Asn201, back-to-back homodimer in crystal) YKWHYSGLNRWHGAGSTADFQKIIQERCDTYTQTIRPGSRSRNCQAIRQAFMSAFISKDPCKATKEDYNSLINLAPPTVPCGQQVFWSKTKELAHEYAKRRRLMTLEDTLLGYLADGLRWCGEPGSSDLNIWSCPDWRKDCRTNYLSVFWEVLSERFAESACNTVRVVLNGSLENAFDSMSIFGRVQAPNLRPQVELEAWLVHDTGKPPSDSCSGSSIRKLKSILDGRNVKFRCMDNLSRDQFLQRS equals 0.03

The recorded kcat for entry bCD38 (bovine CD38/NAD+glycohydrolase) (Bos taurus; W168A) (protein, soluble ecto-domain residues 32-278 (first 31 residues removed), alpha-factor secretion signal, Pichia pastoris GS115 or X33, mono-N-glycosylated at Asn201, back-to-back homodimer in crystal) YKWHYSGLNRWHGAGSTADFQKIIQERCDTYTQTIRPGSRSRNCQAIRQAFMSAFISKDPCKATKEDYNSLINLAPPTVPCGQQVFWSKTKELAHEYAKRRRLMTLEDTLLGYLADGLRWCGEPGSSDLNIWSCPDARKDCRTNYLSVFWEVLSERFAESACNTVRVVLNGSLENAFDSMSIFGRVEAPNLRPQVELEAWLVHDTGKPPSDSCSGSSIRKLKSILDGRNVKFRCMDNLSRDQFLQRS equals 19.6

The recorded kcat for entry bCD38 (bovine CD38/NAD+glycohydrolase) (Bos taurus; K120A) (protein, soluble ecto-domain residues 32-278 (first 31 residues removed), alpha-factor secretion signal, Pichia pastoris GS115 or X33, mono-N-glycosylated at Asn201, back-to-back homodimer in crystal) YKWHYSGLNRWHGAGSTADFQKIIQERCDTYTQTIRPGSRSRNCQAIRQAFMSAFISKDPCKATKEDYNSLINLAPPTVPCGQQVFWSATKELAHEYAKRRRLMTLEDTLLGYLADGLRWCGEPGSSDLNIWSCPDWRKDCRTNYLSVFWEVLSERFAESACNTVRVVLNGSLENAFDSMSIFGRVEAPNLRPQVELEAWLVHDTGKPPSDSCSGSSIRKLKSILDGRNVKFRCMDNLSRDQFLQRS equals 47.1
